Listing of recorded ED50 by entry.
Test system: gastronintestinal motility
Assay: Mouse Cecal Test (inhibition of gastrointestinal motility, charcoal in cecum)
Format: in vivo, mouse (male Charles River mice)
Conditions: po, IG, test compound 30 minutes before charcoal, cecum examined 3.5 hours after charcoal, read-out: ED50 ± S.E. (median effective dose), Mouse Cecal Test

Entry under test: C=CCC(CC1CC2CCN1CC2)(c1ccccc1)c1ccccc1 (stereo not shown) . Its ED50 was 1.82 mg/kg

Entry under test: CC(CC1CC2CCN1CC2)(c1ccccc1)c1ccccc1 (stereo not shown) . Its ED50 was 43.1 mg/kg

Entry under test: CCCCC(CC1CC2CCN1CC2)(c1ccccc1)c1ccccc1 (stereo not shown) . Its ED50 was 8.74 mg/kg

Entry under test: CC(C)=CCC(CC1CC2CCN1CC2)(c1ccccc1)c1ccccc1 (stereo not shown) . Its ED50 was 1.45 mg/kg
